The entries below come with measured TERMINAL_BW values attached.
species: Rattus norvegicus; experiment: Open TG-GATES - Regimen: Single; format: toxicity, organism-based, Sprague-Dawley; parameters: regimen Single, gender Male, age 6 weeks; details: in vivo, po, 1000 mg/kg, 24 h, route gavage, dose level High
Reply with just the number (in g).

Look over these answered cases.
CCOC(=O)CCC(=O)O[C@H]1[C@H](O[C@@H]2[C@@H](C)[C@H](O[C@H]3C[C@@](C)(OC)[C@@H](O)[C@H](C)O3)[C@@H](C)C(=O)O[C@H](CC)[C@@](C)(O)[C@H](O)[C@@H](C)C(=O)[C@H](C)C[C@@]2(C)O)O[C@H](C)C[C@@H]1N(C)C [ERYTHROMYCIN ETHYLSUCCINATE]	227.7
COC1=CC(=O)C[C@@H](C)[C@]12Oc1c(Cl)c(OC)cc(OC)c1C2=O	222.6
NC(N)=Nc1nc(CSCCC(N)=NS(N)(=O)=O)cs1	223.1

Which TERMINAL_BW value belongs to COc1ccc2[nH]c([S+]([O-])Cc3ncc(C)c(OC)c3C)nc2c1 (centres undefined) ? 226
